test: M. tuberculosis H37Rv growth inhibitors, H37Rv strain (AID 1626); conditions: hits give high values, concentration not given here;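 also: bacteria incubated seven days before Alamar blue readout; 0% = bacteria only wells and 100% = bacteria with antibiotic wells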
Out of some 220,000 compounds screened, about 2,000 (0.91%) were called active. About 2% were inconclusive and are not listed. A selection follows. Measured potencies and affinities stand elsewhere.
recorded endpoint: inhibition (%)
Give bare numbers, in %.

These recorded examples may help you get a feel for the data.
1. O=C(NNc1c(Cl)cccc1Cl)C1CCC1 | -0.74
2. COc1ccccc1-n1cc(C(=O)c2cc(Cl)ccc2O)cc(C#N)c1=O | 7.62
3. CC(=O)Nc1cc(C(F)(F)F)ccc1OCC1CCCO1 (centres undefined) | 4.74

Query compound follows.
Prompt: What does the data say about its inhibition? Entry: "Cc1onc(-c2ccccc2)c1C(=O)N1CCN(C)CC1"
Response: -7.83

###

So I've got a bunch of compounds here, and I need their inhibition values.
test: M. tuberculosis H37Rv growth inhibitors, H37Rv strain (AID 1626); settings: hits give high values, concentration not given here;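 also: bacteria incubated seven days before Alamar blue readout; 0% = bacteria only wells and 100% = bacteria with antibiotic wells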
Out of some 220,000 compounds screened, about 2,000 (0.91%) were called active. Roughly 2% stayed inconclusive and do not appear here. Only a sample is shown. Entries with a potency or affinity are not part of this list.
Give bare numbers, in %.

Solved entries:
1) Cc1ccc(C)c(OCCCC(=O)Nc2ccc(N3CCOCC3)cc2)c1 | -9.52
2) Cc1ccc(NC(NC(=O)c2cccs2)C(Cl)(Cl)Cl)cc1 (configuration not stated) | 21
3) Cc1cc2nccc(-c3ccncc3)n2n1 | 2.36
4) CCCCOC(=O)Nc1sc2c(c1C(=O)OC)CCC2 | -0.74
5) O=C(CCN1C(=O)c2ccccc2C1=O)NC(=S)Nc1ccccc1Cl | 9.27

Provide inhibition for all items below, preserving their order.
1. O=C(c1c(F)cccc1F)N1CCCC1
2. CCOC(=O)c1c(NC(=O)CCc2ccc(CC)o2)sc(C)c1C
3. CC(=O)N(C)c1ccc(OCC(O)Cn2c3ccc(Cl)cc3c3cc(Cl)ccc32)cc1 (configuration not stated)
4. O=C(c1ccc(Cl)nc1)N1CCN(S(=O)(=O)c2ccc(Cl)cc2)CC1
5. Cc1ccccc1NCc1ccc(O)c2ncccc12
6. Cc1cc(C(=O)CCl)c(C)n1CCc1ccccc1

Response:
[-1.31, -6.75, -0.39, 5.1, 5.07, 66.4]

Respectfully, I request inhibition for each entry included below.
1. Cc1ccc(NC(=O)CCSCCC(=O)Nc2ccc(C)c(C)c2)cc1C
2. Cc1ccc(SCC(=O)NCc2cccnc2)cc1

Response:
7.02
-4.12

Give me inhibition for each of these compounds, listed below.
1. CC1(OC(=O)CCc2ccccc2)C(=O)C=C2C=C3CCCN3C=C2C1=O (configuration not stated)
2. Cc1cc(C)nc(NS(=O)(=O)c2ccc(NC(=O)CCC3COc4ccccc4O3)cc2)n1 (configuration not stated)

Response:
1: 6.27; 2: 0.51

// batch mode: one inhibition value per listed entry
1. Cc1cc(C)cc(NC(=S)/C(=C(\[O-])c2ccc(Cl)cc2Cl)[n+]2ccccc2)c1
2. O=[N+]([O-])c1cccc(N=NN(CCO)c2cccc([N+](=O)[O-])c2)c1
3. CC1(C)Cc2c(sc3nc(SCC(=O)O)[nH]c(=O)c23)CO1
4. Cc1ccc(S(=O)(=O)Nc2ccc(O)c3ncccc23)cc1
5. O=C(O/N=C(\c1ccccc1)c1ccccn1)c1cccc2ccccc12
6. O=C(NC1(C(F)(F)F)C(=O)Nc2c1c(=O)[nH]c(=O)n2Cc1ccco1)C1CC1 (configuration not stated)
7. CCOC(=O)c1cnc2ccc(C)cc2c1Nc1ccc(N2CCOCC2)cc1

Response:
1: 6.94; 2: 7.57; 3: -1.16; 4: -2.86; 5: 4.72; 6: 1; 7: 0.42

The following compounds each have a reported value; give each one's inhibition.
1. O=C(CN1CCN(Cc2ccccc2Cl)C1=O)NCc1ccccn1
2. Cc1ccc(/C=N/N2CCN(Cc3ccccc3)CC2)s1
3. N/C(=N\OC(=O)COc1ccccc1Cl)c1ccc(Cl)cc1

Response:
1.55
-23
7.15

# per-item lookup of inhibition; items listed below
1. COC(=O)CCC(=O)Nc1ccc(OC)cc1
2. Cc1cc(C(=O)COc2ccccc2C(N)=O)c(C)n1C
3. COc1ccc(SCCC(=O)NCc2ccncc2)cc1
4. CCc1ccc(C(=O)NC(C(=O)O)C(C)C)cc1 (configuration not stated)
5. Cc1cc(C(=O)CSc2ncccn2)c(C)n1Cc1ccco1

Response:
[1.4, 0.29, -7.49, -19.3, 6.3]

Would you mind listing inhibition for each of the following compounds?
1. O=C(NCCCn1ccnc1)C(=O)NCC(c1cccnc1)N1CCN(c2ccccc2)CC1 (configuration not stated)
2. O=C(OCc1ccccc1)C1=NNC2C(=O)N(Cc3ccccc3)C(=O)C12 (configuration not stated)
3. CC(C)c1nc2sc3c(NCc4ccccc4)ncnc3c2c2c1COC(C)(C)C2
4. O=C(Cn1cnc2c(cnn2-c2ccc(F)cc2)c1=O)N1CCN(c2ccccc2F)CC1

Response:
0.94
8.28
-2.03
3.88

Fill in inhibition for each of the 3 compounds listed.
1. CCn1c(SCC(=O)c2cccs2)nnc1-c1ccco1
2. Cc1cccnc1NCc1ccc(O)c2ncccc12
3. CC(C)(C)NC(=O)C1CC(=O)OC12CCOC(C)(C)C2 (configuration not stated)

Response:
-18.1
-8.13
0.06
